Species on record: Rattus norvegicus
Test: Open TG-GATES - Regimen: Single
Assay type: toxicity, organism-based, Sprague-Dawley
Set-up: regimen Single, gender Male, age 6 weeks
Settings: in vivo, po, 0 mg/kg, 24 h, tissue Plasma, route gavage, dose level Control
Observed Property: A/G

molecule="CN(C)CCC(c1ccc(Cl)cc1)c1ccccn1 (stereo not drawn)" result=0.8
molecule=CCCc1cc(=O)[nH]c(=S)[nH]1 result=2
molecule=Nc1c2c(nc3ccccc13)CCCC2 result=1.3

* * *

Organism: Rattus norvegicus
Experiment: Open TG-GATES - Regimen: Single
Type: toxicity, organism-based, Sprague-Dawley
Parameters: regimen Single, gender Male, age 6 weeks
Details: in vivo, po, 0 mg/kg, 3 h, tissue Plasma, route gavage, dose level Control
Observed Property: PL (mg/dL)

molecule="CN(C)CCC(c1ccc(Cl)cc1)c1ccccn1 (centres undefined)" observed_property=PL numeric_readout=137.2
molecule=Nc1c2c(nc3ccccc13)CCCC2 observed_property=PL numeric_readout=131.4
molecule=CCCc1cc(=O)[nH]c(=S)[nH]1 observed_property=PL numeric_readout=140.2
molecule=CNC(=C[N+](=O)[O-])NCCSCc1ccc(CN(C)C)o1 observed_property=PL numeric_readout=136.8

* * *

Species: Rattus norvegicus
Experiment: Open TG-GATES - Regimen: Daily Repeat
Type: toxicity, organism-based, Sprague-Dawley
Design: regimen Daily Repeat, gender Male, age 6 weeks
Settings: in vivo, po, 1000 mg/kg, […], tissue Blood, route gavage, dose level High, time 7 day
This listing pairs compounds with measured MCH.
Observed Property: MCH (pg)

smiles_input=Cc1nnc2n1-c1ccc(Cl)cc1C(c1ccccc1Cl)=NC2 observed_property=MCH numeric_readout=20.9
smiles_input=CCOc1ccc(NC(C)=O)cc1 observed_property=MCH numeric_readout=22.7
smiles_input=CN/C(=N/CCSCc1nc[nH]c1C)NC#N observed_property=MCH numeric_readout=21.1
smiles_input=O=C(OC[C@H]1O[C@@H](OC(=O)c2cc(O)c(O)c(OC(=O)c3cc(O)c(O)c(O)c3)c2)[C@H](OC(=O)c2cc(O)c(O)c(OC(=O)c3cc(O)c(O)c(O)c3)c2)[C@@H](OC(=O)c2cc(O)c(O)c(OC(=O)c3cc(O)c(O)c(O)c3)c2)[C@@H]1OC(=O)c1cc(O)c(O)c(OC(=O)c2cc(O)c(O)c(O)c2)c1)c1cc(O)c(O)c(OC(=O)c2cc(O)c(O)c(O)c2)c1 observed_property=MCH numeric_readout=21.8
smiles_input=CNC(=C[N+](=O)[O-])NCCSCc1ccc(CN(C)C)o1 observed_property=MCH numeric_readout=21.7
smiles_input=COC(=O)C1=C(C)NC(C)=C(C(=O)OC)C1c1ccccc1[N+](=O)[O-] observed_property=MCH numeric_readout=20.2

* * *

This listing pairs compounds with measured PL.
Organism: Rattus norvegicus
Test: Open TG-GATES - Regimen: Daily Repeat
Assay type: toxicity, organism-based, Sprague-Dawley
Design: regimen Daily Repeat, gender Male, age 6 weeks
Conditions: in vivo, po, 0 mg/kg, […], tissue Plasma, route gavage, dose level Control, time 14 day
Observed Property: PL

compound=CCCc1cc(=O)[nH]c(=S)[nH]1 result="150.4 mg/dL"
compound="CN1C(=O)CCS(=O)(=O)C1c1ccc(Cl)cc1 (configuration not stated)" result="136.4 mg/dL"
compound=COC(=O)C1=C(C)NC(C)=C(C(=O)OC)C1c1ccccc1[N+](=O)[O-] result="158.8 mg/dL"
compound=Brc1ccccc1 result="153 mg/dL"
compound="NC1=NC(=O)C(c2ccccc2)O1 (configuration not stated)" result="144.6 mg/dL"
compound=O=C(OC[C@H]1O[C@@H](OC(=O)c2cc(O)c(O)c(OC(=O)c3cc(O)c(O)c(O)c3)c2)[C@H](OC(=O)c2cc(O)c(O)c(OC(=O)c3cc(O)c(O)c(O)c3)c2)[C@@H](OC(=O)c2cc(O)c(O)c(OC(=O)c3cc(O)c(O)c(O)c3)c2)[C@@H]1OC(=O)c1cc(O)c(O)c(OC(=O)c2cc(O)c(O)c(O)c2)c1)c1cc(O)c(O)c(OC(=O)c2cc(O)c(O)c(O)c2)c1 result="140.2 mg/dL"
compound=Cc1nnc2n1-c1ccc(Cl)cc1C(c1ccccc1Cl)=NC2 result="167.4 mg/dL"
